AC50 values for the compounds below.
measurement.target: Gamma-aminobutyric acid receptor subunit alpha-1 (Rattus norvegicus, UniProt P62813); further: assay procedure not described here
Sequence (P62813 whole entry): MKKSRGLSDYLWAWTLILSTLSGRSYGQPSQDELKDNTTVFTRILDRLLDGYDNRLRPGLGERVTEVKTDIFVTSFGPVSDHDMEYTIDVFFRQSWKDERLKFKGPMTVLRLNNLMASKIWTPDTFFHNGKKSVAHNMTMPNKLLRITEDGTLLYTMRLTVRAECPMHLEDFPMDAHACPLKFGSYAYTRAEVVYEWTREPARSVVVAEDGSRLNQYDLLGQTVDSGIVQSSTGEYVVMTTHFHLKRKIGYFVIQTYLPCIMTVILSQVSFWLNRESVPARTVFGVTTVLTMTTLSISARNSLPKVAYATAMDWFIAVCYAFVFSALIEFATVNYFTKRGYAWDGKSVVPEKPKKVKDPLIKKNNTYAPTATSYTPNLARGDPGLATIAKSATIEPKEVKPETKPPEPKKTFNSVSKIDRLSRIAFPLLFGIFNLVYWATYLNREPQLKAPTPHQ
Assay type: functional

* COc1cc(C(=O)NS(=O)(=O)c2ccccc2C)ccc1Cc1cn(C)c2ccc(NC(=O)OC3CCCC3)cc12 | > 10 µM
* CCC(NC(C)C)C(O)c1ccc(O)c2[nH]c(=O)ccc12 (configuration not stated) | > 30 µM
* CNC(=C[N+](=O)[O-])NCCSCc1csc(CN(C)C)n1 | > 10 µM
* NC(=O)NC(=O)Cc1ccccc1 [PHENACEMIDE] | > 10 µM
* CC(C)[C@@H](C)/C=C/[C@@H](C)[C@H]1CC[C@H]2/C(=C/C=C3\C[C@@H](O)CC[C@@H]3C)CCC[C@]12C [DIHYDROTACHYSTEROL] | > 10 µM
* CCCC(C)(COC(N)=O)COC(N)=O [MEPROBAMATE] | > 10 µM
* CC[C@H](C)C(=O)O[C@H]1C[C@@H](C)C=C2C=C[C@H](C)[C@H](CC[C@@H]3C[C@@H](O)CC(=O)O3)[C@H]21 | > 10 µM
* CCOC(=O)[C@@H](N)Cc1ccc(-c2cc(O[C@H](c3ccc(Cl)cc3-n3ccc(C)n3)C(F)(F)F)nc(N)n2)cc1 | > 30 µM
* CCC[C@@H]1C[C@@H](C(=O)N[C@@H]([C@H]2O[C@H](SC)[C@H](O)[C@@H](O)[C@H]2O)[C@@H](C)O)N(C)C1 | > 10 µM
* CCCCOc1ccc(C(=O)CCN2CCCCC2)cc1 | > 10 µM

Query compound follows.
Ask: Request body: readout AC50, system Gamma-aminobutyric acid receptor subunit alpha-1 (Rattus norvegicus, UniProt P62813), query `CC(C)Cc1ccc([C@H](C)C(=O)O)cc1` . Return the value. Further: assay procedure not described here.
Reply: > 30 µM

----------
measurement.target: Motilin receptor (Homo sapiens); further: assay procedure not described here
Sequence (O43193 whole entry): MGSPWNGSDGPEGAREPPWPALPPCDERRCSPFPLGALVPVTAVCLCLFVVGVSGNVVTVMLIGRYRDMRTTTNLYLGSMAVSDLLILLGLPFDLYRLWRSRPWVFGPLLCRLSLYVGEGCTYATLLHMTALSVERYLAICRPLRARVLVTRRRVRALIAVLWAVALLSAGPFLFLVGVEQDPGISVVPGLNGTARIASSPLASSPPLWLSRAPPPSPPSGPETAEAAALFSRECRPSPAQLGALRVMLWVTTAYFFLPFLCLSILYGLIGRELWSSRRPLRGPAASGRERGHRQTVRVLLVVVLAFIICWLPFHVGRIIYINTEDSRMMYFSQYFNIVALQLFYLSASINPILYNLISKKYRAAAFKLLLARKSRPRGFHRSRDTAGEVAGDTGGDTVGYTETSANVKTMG
metric: AC50

Ask: Query (molecule): O=c1[nH]c2ccccc2n1CCCN1CCN(C(c2ccccc2)c2ccccc2)CC1 [OXATOMIDE] ; field requested: AC50
Reply: 12 µM

Ask: Requested read-out: AC50. Entry: CCCc1cc(=O)[nH]c(=S)[nH]1 [PROPYLTHIOURACIL]
Reply: > 10 µM

----------
measurement.target: Voltage-gated inwardly rectifying potassium channel KCNH2 (Homo sapiens, UniProt Q12809); further: assay procedure not described here
Sequence (Q12809 whole entry): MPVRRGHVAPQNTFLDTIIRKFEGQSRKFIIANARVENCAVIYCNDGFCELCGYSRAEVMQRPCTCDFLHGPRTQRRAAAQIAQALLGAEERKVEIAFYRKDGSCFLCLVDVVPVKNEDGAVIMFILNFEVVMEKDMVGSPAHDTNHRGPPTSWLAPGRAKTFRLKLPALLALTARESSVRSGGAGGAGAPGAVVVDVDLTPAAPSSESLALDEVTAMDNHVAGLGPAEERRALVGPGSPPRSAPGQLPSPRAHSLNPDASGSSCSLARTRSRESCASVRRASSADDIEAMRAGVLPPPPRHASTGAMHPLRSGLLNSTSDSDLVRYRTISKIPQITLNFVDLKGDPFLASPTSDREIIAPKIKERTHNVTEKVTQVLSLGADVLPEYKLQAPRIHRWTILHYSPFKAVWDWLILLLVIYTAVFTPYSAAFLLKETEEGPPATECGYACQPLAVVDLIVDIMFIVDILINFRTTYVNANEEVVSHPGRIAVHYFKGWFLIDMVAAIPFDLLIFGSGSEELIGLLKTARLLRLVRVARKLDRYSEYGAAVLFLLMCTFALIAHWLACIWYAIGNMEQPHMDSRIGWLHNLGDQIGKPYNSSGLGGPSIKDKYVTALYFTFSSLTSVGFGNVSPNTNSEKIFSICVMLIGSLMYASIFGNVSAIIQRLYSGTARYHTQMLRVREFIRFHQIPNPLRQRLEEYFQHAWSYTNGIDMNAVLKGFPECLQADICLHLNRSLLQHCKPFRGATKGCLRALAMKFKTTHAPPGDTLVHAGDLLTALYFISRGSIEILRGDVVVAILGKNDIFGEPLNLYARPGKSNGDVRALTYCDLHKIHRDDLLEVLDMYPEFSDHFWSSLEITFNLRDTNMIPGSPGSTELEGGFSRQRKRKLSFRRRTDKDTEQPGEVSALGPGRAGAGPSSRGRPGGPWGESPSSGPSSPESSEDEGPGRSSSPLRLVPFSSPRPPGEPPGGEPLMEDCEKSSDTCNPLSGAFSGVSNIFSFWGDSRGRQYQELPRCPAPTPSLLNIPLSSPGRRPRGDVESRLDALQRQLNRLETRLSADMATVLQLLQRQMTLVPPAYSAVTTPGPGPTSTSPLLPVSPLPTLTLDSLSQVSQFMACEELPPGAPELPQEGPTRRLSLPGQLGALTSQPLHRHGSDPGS
Type: functional
metric: AC50

- CCOc1nc2cccc(C(=O)O)c2n1Cc1ccc(-c2ccccc2-c2nnn[nH]2)cc1: > 30 µM
- CN(C)c1ccc(O)c2c1C[C@H]1C[C@H]3[C@H](N(C)C)C(O)=C(C(N)=O)C(=O)[C@@]3(O)C(O)=C1C2=O: > 30 µM

Could you now consider this next compound?
Ask: Record lookup: for Voltage-gated inwardly rectifying potassium channel KCNH2 (Homo sapiens, UniProt Q12809), what AC50 belongs to `C[C@@H]1C[C@H]2[C@@H]3CCC4=CC(=O)C=C[C@]4(C)[C@@]3(F)[C@@H](O)C[C@]2(C)[C@@]1(O)C(=O)CO` ?
Reply: > 30 µM

----------
measurement.target: Muscarinic acetylcholine receptor M1 (Homo sapiens, UniProt P11229); further: assay procedure not described here
Sequence (P11229 whole entry): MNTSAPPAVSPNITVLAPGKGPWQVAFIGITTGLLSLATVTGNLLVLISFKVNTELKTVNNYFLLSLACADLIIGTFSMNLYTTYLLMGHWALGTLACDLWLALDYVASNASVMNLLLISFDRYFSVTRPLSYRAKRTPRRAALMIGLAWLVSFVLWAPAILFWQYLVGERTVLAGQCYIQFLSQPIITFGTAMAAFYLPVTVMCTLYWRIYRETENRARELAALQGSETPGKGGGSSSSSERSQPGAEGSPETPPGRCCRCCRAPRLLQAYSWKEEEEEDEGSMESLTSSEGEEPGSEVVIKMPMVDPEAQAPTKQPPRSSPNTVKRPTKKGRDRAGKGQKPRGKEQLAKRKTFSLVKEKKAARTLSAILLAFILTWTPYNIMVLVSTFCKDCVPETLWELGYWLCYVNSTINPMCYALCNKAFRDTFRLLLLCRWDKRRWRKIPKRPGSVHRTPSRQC
Type: functional
Here the recorded AC50 is given for each entry.

Below, each entry is followed by its recorded AC50 result.
- OC[C@H]1O[C@@H](n2cnc3c2NC=NC[C@H]3O)C[C@@H]1O: > 30 µM
- CCC(NC(C)C)C(O)c1ccc(O)c2[nH]c(=O)ccc12 (centres undefined): > 30 µM
- C[N+]12CCC(CC1)C(OC(=O)C(O)(c1ccccc1)c1ccccc1)C2 (centres undefined): 0.0031 µM
- O=c1c(O)c(-c2ccc(O)c(O)c2)oc2cc(O)cc(O)c12: > 10 µM
- CN(C)C/C=C/C(=O)Nc1cc2c(Nc3ccc(F)c(Cl)c3)ncnc2cc1O[C@H]1CCOC1: > 30 µM

Ask: Give its AC50 value. Item: `CC1=C(/C=C/C(C)=C/C=C/C(C)=C/CO)C(C)(C)CCC1`
Reply: > 10 µM

Ask: AC50 for `CCc1cc2c(s1)-n1c(C)nnc1CN=C2c1ccccc1Cl` ?
Reply: > 30 µM

Ask: Name the recorded AC50 for `O=C(O)Cc1ccccc1Oc1ccc(Cl)cc1Cl` .
Reply: > 10 µM

----------
measurement.target: Cholecystokinin receptor type A (Homo sapiens); further: assay procedure not described here
Sequence (P32238 whole entry): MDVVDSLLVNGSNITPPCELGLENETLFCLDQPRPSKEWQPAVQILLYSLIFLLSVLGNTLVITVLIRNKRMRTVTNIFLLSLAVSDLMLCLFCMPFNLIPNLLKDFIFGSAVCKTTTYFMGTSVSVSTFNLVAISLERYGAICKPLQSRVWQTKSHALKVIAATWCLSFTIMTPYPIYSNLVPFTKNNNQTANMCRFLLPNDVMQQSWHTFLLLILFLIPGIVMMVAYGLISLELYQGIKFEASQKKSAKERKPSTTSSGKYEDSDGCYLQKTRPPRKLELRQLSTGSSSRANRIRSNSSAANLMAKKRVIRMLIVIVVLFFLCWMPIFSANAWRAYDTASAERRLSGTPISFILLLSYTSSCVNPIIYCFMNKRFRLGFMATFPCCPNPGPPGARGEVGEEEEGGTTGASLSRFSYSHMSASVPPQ
metric: AC50

* CCC(=O)O[C@]1(C(=O)CCl)[C@@H](C)C[C@H]2[C@@H]3CCC4=CC(=O)C=C[C@]4(C)[C@@]3(F)[C@@H](O)C[C@@]21C [CLOBETASOL PROPIONATE] | > 30 µM

Ask: GET /values?readout=AC50&item= `COc1cc(C)c(/C=C/C(C)=C/C=C/C(C)=C/C(=O)O)c(C)c1C`
Reply: > 10 µM

Ask: Which measured AC50 value corresponds to COC(=O)C1=C(C)NC(C)=C(C(=O)OCCN2CCN(C(c3ccccc3)c3ccccc3)CC2)C1c1cccc([N+](=O)[O-])c1 (stereo not drawn) ?
Reply: > 30 µM

Ask: Which AC50 reading was recorded for the compound `O=C(O)Cc1ccccc1Nc1c(Cl)cccc1Cl` ?
Reply: > 30 µM

Ask: Look up AC50 for this compound: `CC(C)(O/N=C(\C(=O)N[C@@H]1C(=O)N2C(C(=O)[O-])=C(C[n+]3ccccc3)CS[C@H]12)c1csc(N)n1)C(=O)O`
Reply: > 300 µM

Ask: So what does the record say about AC50 for `c1ccc(C2(N3CCCCC3)CCCCC2)cc1` ?
Reply: > 30 µM

Ask: Which AC50 value is on record for `C=C1c2cccc(O)c2C(=O)C2=C(O)[C@]3(O)C(=O)C(C(N)=O)=C(O)[C@@H](N(C)C)[C@@H]3[C@@H](O)[C@H]12` ?
Reply: > 30 µM

Ask: What AC50 value was documented for this compound, `COc1ccc2cc(CCC(C)=O)ccc2c1` ?
Reply: > 10 µM

----------
measurement.target: Alpha-2A adrenergic receptor (Homo sapiens); further: assay procedure not described here
Sequence (P08913 whole entry): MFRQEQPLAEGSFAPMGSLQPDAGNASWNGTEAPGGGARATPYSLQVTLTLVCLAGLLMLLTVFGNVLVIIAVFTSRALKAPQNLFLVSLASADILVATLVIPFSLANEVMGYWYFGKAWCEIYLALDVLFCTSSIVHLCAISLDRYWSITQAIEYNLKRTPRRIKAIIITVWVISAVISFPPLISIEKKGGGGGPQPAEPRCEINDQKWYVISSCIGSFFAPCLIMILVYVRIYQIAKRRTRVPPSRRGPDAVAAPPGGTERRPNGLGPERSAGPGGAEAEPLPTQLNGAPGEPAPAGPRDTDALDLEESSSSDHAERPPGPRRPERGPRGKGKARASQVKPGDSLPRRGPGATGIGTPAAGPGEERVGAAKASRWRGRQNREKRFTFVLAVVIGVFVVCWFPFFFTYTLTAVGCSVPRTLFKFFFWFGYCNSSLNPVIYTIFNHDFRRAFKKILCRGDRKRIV
Format: functional, cell-based
# Lookup of reported AC50 keyed by entry

- CN(Cc1cnc2nc(N)nc(N)c2n1)c1ccc(C(=O)N[C@@H](CCC(=O)O)C(=O)O)cc1 [METHOTREXATE]: > 10 µM
- CCCN(CCC)S(=O)(=O)c1ccc(C(=O)O)cc1 [PROBENECID]: > 10 µM
- O=C(O)Cc1ccccc1Nc1c(Cl)cccc1Cl [DICLOFENAC]: > 10 µM

Ask: Any idea what its AC50 is? The compound is CC(=O)[C@H]1CC[C@H]2[C@@H]3C[C@H](C)C4=CC(=O)CC[C@]4(C)[C@H]3[C@@H](O)C[C@]12C [MEDRYSONE]
Reply: > 10 µM

Ask: Dear colleague, I am looking for the recorded AC50 of the following compound: COc1ccc(CN2CCN(C(c3ccc(F)cc3)c3ccc(F)cc3)CC2)c(OC)c1OC [LOMERIZINE]
Reply: > 30 µM

Ask: Item under review: Cc1cc(C)nc(NS(=O)(=O)c2ccc(N)cc2)n1 [SULFAMETHAZINE] . Reported AC50?
Reply: > 10 µM
